tested on: female CBA/J mice; test: In vivo toxicity, bolus ip; conditions: 10 mg/kg bolus ip, day 5
Non-standard residues stand in square brackets, D forms with d. Residues, ends and D or L forms follow the SMILES beside them. Nva = CCC[C@H](N)C(=O)O
PROPERTY_LABEL: Liver weight relative to total weight (%)

>  <MOLECULE>
CCC[C@H](NC(=O)[C@@H]1CCCN1C(=O)[C@@H](NC(=O)[C@H](N)CC(N)=O)[C@@H](C)CC)C(=O)N[C@@H](CC(C)C)C(=O)N[C@@H](Cc1ccc(O)cc1)C(=O)N[C@H](CO)C(=O)N[C@@H](Cc1ccccc1)C(=O)N[C@@H](C)C(=O)N[C@H](CO)C(N)=O [ADP 355-NH2] (H-[dN]IP[Nva]LY[dS]FA[dS]-NH2)

>  <ASSAY_RESULT>
5.9

$$$$
